system: S. aureus Newman; assay: Bliss interaction score (quartile over a dose matrix) (fitness difference); higher = more antagonism (negative = synergy);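 note: first quartile when negative (synergy) and third quartile when positive (antagonism)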

- compound: "CC[C@H]1OC(=O)[C@H](C)[C@@H](O[C@H]2C[C@@](C)(OC)[C@@H](O)[C@H](C)O2)[C@H](C)[C@@H](O[C@@H]2O[C@H](C)C[C@H](N(C)C)[C@H]2O)[C@](C)(OC)C[C@@H](C)C(=O)[C@H](C)[C@@H](O)[C@]1(C)O [Clarithromycin] + CCC[C@@H]1C[C@@H](C(=O)N[C@@H]([C@H]2O[C@H](SC)[C@H](O)[C@@H](O)[C@H]2O)[C@@H](C)O)N(C)C1 [Lincomycin]"
  Bliss interaction score: -0.144
- compound: "N[C@@H]1CONC1=O [CycloserineD] + Cc1onc(-c2ccccc2)c1C(=O)N[C@@H]1C(=O)N2[C@@H]1SC(C)(C)[C@@H]2C(=O)O [Oxacillin]"
  Bliss interaction score: -0.0567
- compound: "CCC[C@@H]1C[C@@H](C(=O)N[C@@H]([C@H]2O[C@H](SC)[C@H](O)[C@@H](O)[C@H]2O)[C@@H](C)O)N(C)C1 [Lincomycin] + C/C(=C\\C(=O)OCCCCCCCCC(=O)O)C[C@@H]1OC[C@H](C[C@@H]2O[C@H]2[C@@H](C)[C@H](C)O)[C@@H](O)[C@H]1O [Pseudomonic acid]"
  Bliss interaction score: 0.031
- compound: "O=C(N[C@H](CO)[C@H](O)c1ccc([N+](=O)[O-])cc1)C(Cl)Cl [Chloramphenicol] + CC(=O)O[C@H]1C[C@@]2(C)[C@@H](C[C@@H](O)[C@H]3[C@@]4(C)CC[C@@H](O)[C@@H](C)[C@@H]4CC[C@@]32C)/C1=C(\\CCC=C(C)C)C(=O)O [Fusidic acid]"
  Bliss interaction score: -0.0559

---

tested on: B. subtilis 168; test: Bliss interaction score (quartile over a dose matrix) (fitness difference); higher = more antagonism (negative = synergy)

- molecule: "O=C(O[C@@H]1Cc2c(O)cc(O)cc2O[C@@H]1c1cc(O)c(O)c(O)c1)c1cc(O)c(O)c(O)c1 [EGCG] + CN(N=O)C(=O)N[C@@H](C=O)[C@@H](O)[C@H](O)[C@H](O)CO [Streptozotocin]"
  test-system: "B. subtilis 168"
  Bliss interaction score: -0.0853
- molecule: "N[C@@H]1CONC1=O [CycloserineD] + CCN(CC)CCOC(=O)c1ccc(N)cc1 [Procaine]"
  test-system: "B. subtilis 168"
  Bliss interaction score: -0.0484
- molecule: "CC(=O)O[C@H]1C[C@@]2(C)[C@@H](C[C@@H](O)[C@H]3[C@@]4(C)CC[C@@H](O)[C@@H](C)[C@@H]4CC[C@@]32C)/C1=C(\\CCC=C(C)C)C(=O)O [Fusidic acid] + CO[C@@H]1[C@@H](OC(N)=O)[C@@H](O)[C@H](Oc2ccc3c(O)c(NC(=O)c4ccc(O)c(CC=C(C)C)c4)c(=O)oc3c2C)OC1(C)C [Novobiocin]"
  test-system: "B. subtilis 168"
  Bliss interaction score: 0.0723
- molecule: "CCC[C@@H]1C[C@@H](C(=O)N[C@@H]([C@H]2O[C@H](SC)[C@H](O)[C@@H](O)[C@H]2O)[C@@H](C)O)N(C)C1 [Lincomycin] + COc1c(N2C[C@@H]3CCCN[C@@H]3C2)c(F)cc2c(=O)c(C(=O)O)cn(C3CC3)c12 [Moxifloxacin]"
  test-system: "B. subtilis 168"
  Bliss interaction score: -0.0143
- molecule: "CC[C@H]1OC(=O)[C@H](C)[C@@H](O[C@H]2C[C@@](C)(OC)[C@@H](O)[C@H](C)O2)[C@H](C)[C@@H](O[C@@H]2O[C@H](C)C[C@H](N(C)C)[C@H]2O)[C@](C)(OC)C[C@@H](C)C(=O)[C@H](C)[C@@H](O)[C@]1(C)O [Clarithromycin] + C[C@@H]1O[C@@H]1P(=O)(O)O [Fosfomycin]"
  test-system: "B. subtilis 168"
  Bliss interaction score: 0.0504
- molecule: "CC(=O)O[C@H]1C[C@@]2(C)[C@@H](C[C@@H](O)[C@H]3[C@@]4(C)CC[C@@H](O)[C@@H](C)[C@@H]4CC[C@@]32C)/C1=C(\\CCC=C(C)C)C(=O)O [Fusidic acid] + CO[C@H]1/C=C/O[C@@]2(C)Oc3c(C)c(O)c4c(O)c(c(/C=N/N5CCN(C)CC5)c(O)c4c3C2=O)NC(=O)/C(C)=C\\C=C\\[C@H](C)[C@H](O)[C@@H](C)[C@@H](O)[C@@H](C)[C@H](OC(C)=O)[C@@H]1C [Rifampicin]"
  test-system: "B. subtilis 168"
  Bliss interaction score: 0.0723
- molecule: "N[C@@H]1CONC1=O [CycloserineD] + COc1cccc2c1C(=O)c1c(O)c3c(c(O)c1C2=O)C[C@@](O)(C(=O)CO)C[C@@H]3O[C@H]1C[C@H](N)[C@H](O)[C@H](C)O1 [Doxorubicin]"
  test-system: "B. subtilis 168"
  Bliss interaction score: 0.0778
- molecule: "COc1c(N2C[C@@H]3CCCN[C@@H]3C2)c(F)cc2c(=O)c(C(=O)O)cn(C3CC3)c12 [Moxifloxacin] + COc1ccc(C[C@H](N)C(=O)N[C@H]2[C@@H](O)[C@H](n3cnc4c(N(C)C)ncnc43)O[C@@H]2CO)cc1 [Puromycin]"
  test-system: "B. subtilis 168"
  Bliss interaction score: -0.0157

---

system: S. aureus DSM 20231; assay: Bliss interaction score (quartile over a dose matrix) (fitness difference); higher = more antagonism (negative = synergy)

- compound: "O=C1CN(/N=C/c2ccc([N+](=O)[O-])o2)C(=O)N1 [Nitrofurantoin] + CN[C@H](CC(C)C)C(=O)N[C@H]1C(=O)N[C@@H](CC(N)=O)C(=O)N[C@H]2C(=O)N[C@H]3C(=O)N[C@H](C(=O)N[C@H](C(=O)O)c4cc(O)cc(O)c4-c4cc3ccc4O)[C@H](O)c3ccc(c(Cl)c3)Oc3cc2cc(c3O[C@@H]2O[C@H](CO)[C@@H](O)[C@H](O)[C@H]2O[C@H]2C[C@](C)(N)[C@H](O)[C@H](C)O2)Oc2ccc(cc2Cl)[C@H]1O [Vancomycin]"
  Bliss interaction score: 0.0253

---

The reader will find reported Bliss interaction score values listed item by item below.
tested on: S. aureus Newman; assay: Bliss interaction score (quartile over a dose matrix) (fitness difference); higher = more antagonism (negative = synergy)

- molecule: "O=C(N[C@H](CO)[C@H](O)c1ccc([N+](=O)[O-])cc1)C(Cl)Cl [Chloramphenicol] + C/C(=C\\C(=O)OCCCCCCCCC(=O)O)C[C@@H]1OC[C@H](C[C@@H]2O[C@H]2[C@@H](C)[C@H](C)O)[C@@H](O)[C@H]1O [Pseudomonic acid]"
  Bliss interaction score: 0.0532
- molecule: "O=C(O[C@@H]1Cc2c(O)cc(O)cc2O[C@@H]1c1cc(O)c(O)c(O)c1)c1cc(O)c(O)c(O)c1 [EGCG] + COc1ccc(C[C@H](N)C(=O)N[C@H]2[C@@H](O)[C@H](n3cnc4c(N(C)C)ncnc43)O[C@@H]2CO)cc1 [Puromycin]"
  Bliss interaction score: 0.0755
- molecule: "CC(=O)OC[C@H]1O[C@@H]([S-])[C@H](OC(C)=O)[C@@H](OC(C)=O)[C@@H]1OC(C)=O.CCP(CC)CC.[Au+] [Auranofin] + CN(C)[C@@H]1C(O)=C(C(N)=O)C(=O)[C@@]2(O)C(O)=C3C(=O)c4c(O)ccc(Cl)c4[C@@](C)(O)[C@H]3C[C@@H]12 [Clortetracycline]"
  Bliss interaction score: 0.0623
- molecule: "CCC[C@@H]1C[C@@H](C(=O)N[C@@H]([C@H]2O[C@H](SC)[C@H](O)[C@@H](O)[C@H]2O)[C@H](C)Cl)N(C)C1 [Clindamycin] + Cc1ncc([N+](=O)[O-])n1CCO [Metronidazole]"
  Bliss interaction score: 0.0887
- molecule: "CCC[C@@H]1C[C@@H](C(=O)N[C@@H]([C@H]2O[C@H](SC)[C@H](O)[C@@H](O)[C@H]2O)[C@@H](C)O)N(C)C1 [Lincomycin] + CN[C@@H]1[C@H](O)[C@H](NC)[C@H]2O[C@@]3(O)C(=O)C[C@@H](C)O[C@H]3O[C@@H]2[C@H]1O [Spectinomycin]"
  Bliss interaction score: -0.195
- molecule: "C[C@@H](O)[C@H]1C(=O)N2C(C(=O)O)=C(SCCNC=N)C[C@H]12 [Imipenem] + CN[C@H](CC(C)C)C(=O)N[C@H]1C(=O)N[C@@H](CC(N)=O)C(=O)N[C@H]2C(=O)N[C@H]3C(=O)N[C@H](C(=O)N[C@H](C(=O)O)c4cc(O)cc(O)c4-c4cc3ccc4O)[C@H](O[C@H]3C[C@](C)(N)[C@@H](O)[C@H](C)O3)c3ccc(c(Cl)c3)Oc3cc2cc(c3O[C@@H]2O[C@H](CO)[C@@H](O)[C@H](O)[C@H]2O[C@H]2C[C@](C)(NCc3ccc(-c4ccc(Cl)cc4)cc3)[C@@H](O)[C@H](C)O2)Oc2ccc(cc2Cl)[C@H]1O [Oritavancin]"
  Bliss interaction score: 0.0479
- molecule: "C[C@@H](O)[C@H]1C(=O)N2C(C(=O)O)=C(SCCNC=N)C[C@H]12 [Imipenem] + CO[C@@H]1[C@@H](OC(N)=O)[C@@H](O)[C@H](Oc2ccc3c(O)c(NC(=O)c4ccc(O)c(CC=C(C)C)c4)c(=O)oc3c2C)OC1(C)C [Novobiocin]"
  Bliss interaction score: -0.0163

Numbers sourced from the supplement of paper PMC10627819.
